System: SARS-CoV-2
ASSAY_EXPLANATION: Antiviral activity against SARS CoV-2 pseudovirus transfected in HEK293 cells harboring pLenti-GFP-Luc assessed as inhibition of viral packing process treated from 12 to 48 hrs post-transfection by luciferase assay
Assay type: functional, organism-based
SETTINGS: Severe acute respiratory syndrome coronavirus 2, HeLa-ACE2
QUANTITY: EC50 (µM)
Provide the reading as a plain figure in µM.

Sample O=c1cc(-c2ccc(O)c(O)c2)oc2cc(O)cc(OCCCCCCCCCCN3C[C@H](O)[C@@H](O)[C@H](O)[C@H]3CO)c12 ; EC50 observed: 7.52
